TESTED_SYSTEM: UniProtKB O55242
MEASUREMENT_DESCRIPTION: [3H]
Assay type: binding
Reported values of IC50 for individual entries

Use the examples below as a reference point.
Clc1cccc(Cl)c1N=C1NCCN1 : > 10 µM
OC(CCCN1CCC(O)(c2ccc(Cl)cc2)CC1)c1ccc(F)cc1 (stereo not drawn) [Haloperidol metabolite II] : 0.0128 µM
OC1(c2ccc(Cl)cc2)CCNCC1 [Haloperidol metabolite I, 4-(4-chlorophenyl)-4-hydroxypiperidine] : 0.254 µM
CCN1CCC[C@H]1CNC(=O)c1cc(S(N)(=O)=O)ccc1OC [(−)-Sulpiride, (−)-sulpiride] : > 10 µM
CS(=O)(=O)c1ccc(C2=C(c3ccccc3)C(=O)OC2)cc1 : > 10 µM

Next, consider the following molecule.
Quick check: IC50 on UniProtKB O55242, item NCC1(CC(=O)O)CCCCC1 ?
> 10 µM

====

Tested on: mice
MEASUREMENT_DESCRIPTION: Rotarod test
Format: in vivo, mouse
CONDITIONS_USED: 45 min after s.c.; mg/kg: HP 0.06, HP-Met-I 64, HP-Met-II 0.25, (−)-sulpiride 100, HP-Met-III 128, PRE-084 64
MEASUREMENT_TYPE: Effect on rotarod latency

Cl.O=C(OCCN1CCOCC1)C1(c2ccccc2)CCCCC1 [PRE-084] : devoid of any effect
O=C(O)CCC(=O)c1ccc(F)cc1 [Haloperidol metabolite III, p-fluorobenzoylpropionic acid] : devoid of any effect
CCN1CCC[C@H]1CNC(=O)c1cc(S(N)(=O)=O)ccc1OC [(−)-Sulpiride, (−)-sulpiride] : devoid of any effect
O=C(CCCN1CCC(O)(c2ccc(Cl)cc2)CC1)c1ccc(F)cc1 [Haloperidol, haloperidol] : no effect
OC(CCCN1CCC(O)(c2ccc(Cl)cc2)CC1)c1ccc(F)cc1 (stereo not drawn) [Haloperidol metabolite II] : no effect

Next, consider the following compound.
Quick check: Effect on rotarod latency on mice, item OC1(c2ccc(Cl)cc2)CCNCC1 [Haloperidol metabolite I, 4-(4-chlorophenyl)-4-hydroxypiperidine] ?
no effect

====

TESTED_SYSTEM: σ1 receptor (Mus musculus, UniProt O55242)
MEASUREMENT_DESCRIPTION: [3H]
Type: binding
CONDITIONS_USED: read-out: IC50 (concentration of unlabeled drug that inhibited the specific binding of [3H](+)-pentazocine by 50%); mouse brain membranes P2 fraction; 5 nM [3H](+)-pentazocine; 240 min, 30°C, pH 8
MEASUREMENT_TYPE: IC50 (nM)
Number in nM, nothing else.

For Cl.O=C(OCCN1CCOCC1)C1(c2ccccc2)CCCCC1 [PRE-084] , what is its reported IC50?
171
